- protocol: Paramagnetic relaxation properties in water at 10 MHz (0.15T), RADX spin analyzer
- Format: physicochemical
- condition summary: 1 mM solution in water, 10 MHz (0.15T)
Measured Relaxivity (mM⁻¹sec⁻¹) Spin-Spin of individual entries
Lab book: enter the figure in mM⁻¹ s⁻¹, no units written.

CC(=O)[O-].CC(=O)[O-].NCC(=O)O.O.O.O.[Mn+2]; 33.3
CC(=O)[O-].CC(=O)[O-].NCC(=O)O.NCC(=O)O.O.O.[Mn+2]; 34.5
CC(=O)[O-].CC(=O)[O-].NCC(=O)O.NCC(=O)O.NCC(=O)O.NCC(=O)O.[Mn+2] [[Manganese(II)·(Glycine)₄]Diacetate]; 33.3

# lookup: Relaxivity (mM⁻¹sec⁻¹) Spin-Spin of CC(=O)[O-].CC(=O)[O-].O.O.O.O.[Mn+2] [[Manganese(II)·(H₂O)₄]Diacetate, reference compound]
33.3

Request: CC(=O)[O-].CC(=O)[O-].NCC(=O)O.NCC(=O)O.NCC(=O)O.O.[Mn+2]
33.3
